Tested on: IGROV-1
Assay: Growth inhibition of Homo sapiens (human) IGROV1 cells at 10^-5 M after 48 hr by SRB assay
Assay type: functional
Settings: IGROV-1, 48 h, read-out: GI
Structures can show the parent of a compound that is named as a salt.
Please enter yes (1) where inhibition of growth at 10 µM is greater than or equal to 30%, and no (0) where it is lower.

Please review the following examples before continuing.
{"columns": ["Molecule", "Group"],
 "data": [
  ["Cc1ccsc1/C=N\\C(=N)Nc1nc2ccccc2[nH]1", "no (0)"],
  ["CO[C@@]12[C@H](COC(N)=O)C3=C(C(=O)C(C)=C(N)C3=O)N1C[C@@H]1N[C@@H]12", "yes (1)"],
  ["c1ccc2c(-c3nc4cc5nc6ccccc6nc5cc4[nH]3)cccc2c1", "yes (1)"],
  ["O=C1c2ccccc2C(=O)c2c1ccc1nc(-c3c(O)ccc4ccccc34)[nH]c21", "yes (1)"],
  ["Cc1ccc(/C=N\\C(=N)Nc2nc3ccccc3[nH]2)s1", "no (0)"]
]}

Req: Entry Cc1ccc(-c2nc3cc4nc5ccccc5nc4cc3[nH]2)s1 : is its inhibition of growth at 10 µM no less than 30%?
Resp: no (0)

Req: Entry COc1cccc2c1C(=O)c1c(O)c3c(c(O)c1C2=O)C[C@@](O)(C(=O)CO)C[C@@H]3O[C@H]1C[C@H](N)[C@H](O)[C@H](C)O1 [DOXORUBICIN HYDROCHLORIDE] : is its inhibition of growth at 10 µM no less than 30%?
Resp: yes (1)

Req: Entry O=C1c2ccccc2C(=O)c2c1ccc1nc(-c3cccc4ccccc34)[nH]c21 : is its inhibition of growth at 10 µM no less than 30%?
Resp: yes (1)

Req: Entry Cn1cccc1-c1nc2cc3nc4ccccc4nc3cc2[nH]1 : is its inhibition of growth at 10 µM no less than 30%?
Resp: no (0)

Req: Entry Cn1cccc1/C=N/C(=N)Nc1nc2ccccc2[nH]1 : is its inhibition of growth at 10 µM no less than 30%?
Resp: no (0)

Req: Entry N=C(/N=C/c1cccc2ccccc12)Nc1nc2ccccc2[nH]1 : is its inhibition of growth at 10 µM no less than 30%?
Resp: no (0)

Req: Entry CC(=O)O[C@H]1C(=O)[C@@]2(C)[C@H]([C@H](OC(=O)c3ccccc3)[C@]3(O)C[C@H](OC(=O)[C@H](O)[C@@H](NC(=O)c4ccccc4)c4ccccc4)C(C)=C1C3(C)C)[C@]1(OC(C)=O)CO[C@@H]1C[C@@H]2O : is its inhibition of growth at 10 µM no less than 30%?
Resp: yes (1)

Req: Entry O=C1c2ccccc2C(=O)c2c1ccc1nc(-c3ccc4ccccc4c3)[nH]c21 : is its inhibition of growth at 10 µM no less than 30%?
Resp: no (0)

Req: Entry Cc1ccsc1-c1nc2ccc3c(c2[nH]1)C(=O)c1ccccc1C3=O : is its inhibition of growth at 10 µM no less than 30%?
Resp: no (0)

Req: Entry N=C(/N=C\c1ccc2ccccc2c1)Nc1nc2ccccc2[nH]1 : is its inhibition of growth at 10 µM no less than 30%?
Resp: no (0)

Req: Entry Cc1ccc(-c2nc3ccc4c(c3[nH]2)C(=O)c2ccccc2C4=O)s1 : is its inhibition of growth at 10 µM no less than 30%?
Resp: no (0)

Req: Entry Cn1cccc1-c1nc2ccc3c(c2[nH]1)C(=O)c1ccccc1C3=O : is its inhibition of growth at 10 µM no less than 30%?
Resp: no (0)

Req: Entry Oc1ccc2ccccc2c1-c1nc2cc3nc4ccccc4nc3cc2[nH]1 : is its inhibition of growth at 10 µM no less than 30%?
Resp: yes (1)

Req: Entry N=C(/N=C/c1c(O)ccc2ccccc12)Nc1nc2ccccc2[nH]1 : is its inhibition of growth at 10 µM no less than 30%?
Resp: no (0)

Req: Entry c1ccc2cc(-c3nc4cc5nc6ccccc6nc5cc4[nH]3)ccc2c1 : is its inhibition of growth at 10 µM no less than 30%?
Resp: no (0)

Origin of measurements: ChEMBL document CHEMBL3046918
